The origin of these recorded values is ChEMBL document CHEMBL4190404.

inhibition by entry:
- Tested on: Receptor-type tyrosine-protein kinase FLT3 (Homo sapiens), P36888 [UNDEFINED MUTATION]
- Sequence (P36888 whole entry, looked up, change not shown): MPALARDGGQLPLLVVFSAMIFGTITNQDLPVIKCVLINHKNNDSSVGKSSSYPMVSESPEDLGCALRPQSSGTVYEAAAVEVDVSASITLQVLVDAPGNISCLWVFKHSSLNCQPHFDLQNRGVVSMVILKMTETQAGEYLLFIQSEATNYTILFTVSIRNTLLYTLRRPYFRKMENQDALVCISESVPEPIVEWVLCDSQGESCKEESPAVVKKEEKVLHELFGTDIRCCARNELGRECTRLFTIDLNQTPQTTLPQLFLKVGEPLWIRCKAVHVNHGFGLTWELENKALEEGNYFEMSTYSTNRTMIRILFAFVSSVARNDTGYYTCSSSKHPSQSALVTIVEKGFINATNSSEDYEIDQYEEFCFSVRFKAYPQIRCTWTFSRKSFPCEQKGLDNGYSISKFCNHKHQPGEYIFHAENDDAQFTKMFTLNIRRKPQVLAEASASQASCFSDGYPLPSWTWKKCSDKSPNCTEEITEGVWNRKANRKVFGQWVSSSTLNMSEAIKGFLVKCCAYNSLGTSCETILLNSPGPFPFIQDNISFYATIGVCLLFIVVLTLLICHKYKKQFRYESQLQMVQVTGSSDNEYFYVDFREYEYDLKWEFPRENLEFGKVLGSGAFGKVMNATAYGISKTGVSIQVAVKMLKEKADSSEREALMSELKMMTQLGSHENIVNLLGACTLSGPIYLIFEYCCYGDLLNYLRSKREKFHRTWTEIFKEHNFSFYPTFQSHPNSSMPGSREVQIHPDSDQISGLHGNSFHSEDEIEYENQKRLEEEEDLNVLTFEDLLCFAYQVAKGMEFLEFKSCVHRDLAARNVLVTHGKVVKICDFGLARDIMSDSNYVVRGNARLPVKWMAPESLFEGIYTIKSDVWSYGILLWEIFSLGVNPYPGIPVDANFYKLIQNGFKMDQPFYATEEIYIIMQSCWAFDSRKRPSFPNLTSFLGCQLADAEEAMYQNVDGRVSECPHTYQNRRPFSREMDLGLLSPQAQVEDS
- assay procedure: Inhibition of FLT3 ITD mutant (unknown origin) using TAMRA-Src- tide as substrate at 12.5 uM after 1 hr by fluorescence polarization assay relative to control
value type: inhibition

# item smiles, value type, result
records = [
    ("COC(=O)[C@@H](Cc1ccccc1)NC(=O)c1c(C)[nH]c(/C=C2\\C(=O)Nc3ccc(C(=O)O)cc32)c1C", "inhibition", "> 100%"),
    ("COC(=O)CC[C@H](NC(=O)c1c(C)[nH]c(/C=C2\\C(=O)Nc3ccc(C(=O)O)cc32)c1C)C(=O)OC", "inhibition", "> 100%"),
    ("CCOC(=O)c1c(C)[nH]c(/C=C2\\C(=O)Nc3ccc(C(=O)N[C@H](Cc4ccccc4)C(=O)O)cc32)c1C", "inhibition", "96.2%"),
    ("COC(=O)[C@@H](Cc1ccccc1)NC(=O)c1ccc2c(c1)/C(=C/c1[nH]c(C)c(C(=O)N[C@H](Cc3ccccc3)C(=O)O)c1C)C(=O)N2", "inhibition", "> 100%"),
    ("COC(=O)CC[C@H](NC(=O)c1c(C)[nH]c(/C=C2\\C(=O)Nc3ccc(C(=O)N[C@H](Cc4ccccc4)C(=O)OC)cc32)c1C)C(=O)OC", "inhibition", "88.4%"),
    ("Cc1[nH]c(/C=C2\\C(=O)Nc3ccc(C(=O)N[C@@H](Cc4ccccc4)C(=O)O)cc32)c(C)c1C(=O)O", "inhibition", "> 100%"),
    ("COC(=O)[C@H](Cc1ccccc1)NC(=O)c1ccc2c(c1)/C(=C/c1[nH]c(C)c(C(=O)N[C@@H](Cc3ccccc3)C(=O)O)c1C)C(=O)N2", "inhibition", "> 100%"),
    ("COC(=O)[C@H](Cc1ccccc1)NC(=O)c1c(C)[nH]c(/C=C2\\C(=O)Nc3ccc(C(=O)O)cc32)c1C", "inhibition", "98.7%"),
    ("Cc1[nH]c(/C=C2\\C(=O)Nc3ccc(C(=O)N[C@@H](Cc4ccccc4)C(=O)O)cc32)c(C)c1C(=O)N[C@H](Cc1ccccc1)C(=O)O", "inhibition", "> 100%"),
    ("COC(=O)CC[C@@H](NC(=O)c1ccc2c(c1)/C(=C/c1[nH]c(C)c(C(=O)N[C@@H](Cc3ccccc3)C(=O)O)c1C)C(=O)N2)C(=O)OC", "inhibition", "> 100%"),
    ("Cc1[nH]c(/C=C2\\C(=O)Nc3ccc(C(=O)N[C@H](Cc4ccccc4)C(=O)O)cc32)c(C)c1C(=O)O", "inhibition", "> 100%"),
    ("COC(=O)CC[C@H](NC(=O)c1c(C)[nH]c(/C=C2\\C(=O)Nc3ccc(C(=O)N[C@@H](Cc4ccccc4)C(=O)O)cc32)c1C)C(=O)OC", "inhibition", "> 100%"),
    ("COC(=O)[C@@H](Cc1ccccc1)NC(=O)c1ccc2c(c1)/C(=C/c1[nH]c(C)c(C(=O)O)c1C)C(=O)N2", "inhibition", "27.5%"),
    ("COC(=O)CC[C@@H](NC(=O)c1c(C)[nH]c(/C=C2\\C(=O)Nc3ccc(C(=O)O)cc32)c1C)C(=O)OC", "inhibition", "> 100%"),
]
